Reported IC50 values for a set of compounds
target: PLK1 (Homo sapiens); experiment: In vitro PLK1 ELISA assay (biochemical); set-up: purchased Cell Signalling 7728; settings: ELISA, CHK2-derived peptide substrate; read-out: PLK1 IC50 (μM) biochemical assay
Sequence (P53350 whole entry): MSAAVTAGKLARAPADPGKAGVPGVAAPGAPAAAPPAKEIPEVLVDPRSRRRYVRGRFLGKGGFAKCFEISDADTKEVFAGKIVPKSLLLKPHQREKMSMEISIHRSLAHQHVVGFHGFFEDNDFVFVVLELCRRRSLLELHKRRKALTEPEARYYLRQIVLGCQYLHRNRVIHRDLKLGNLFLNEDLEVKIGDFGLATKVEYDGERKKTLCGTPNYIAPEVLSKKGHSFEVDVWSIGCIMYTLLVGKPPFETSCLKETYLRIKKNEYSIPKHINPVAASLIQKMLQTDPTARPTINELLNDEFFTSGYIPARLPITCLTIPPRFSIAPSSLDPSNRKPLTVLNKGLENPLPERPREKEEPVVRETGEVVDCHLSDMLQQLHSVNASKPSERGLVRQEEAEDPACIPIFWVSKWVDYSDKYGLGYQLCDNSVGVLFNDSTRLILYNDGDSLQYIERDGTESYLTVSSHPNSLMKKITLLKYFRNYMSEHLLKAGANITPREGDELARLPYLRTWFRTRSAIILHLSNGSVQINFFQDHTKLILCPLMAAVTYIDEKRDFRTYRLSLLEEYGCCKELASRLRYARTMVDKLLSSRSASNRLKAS

// solved cases for IC50 follow
| smiles data | IC50 |
| --- | --- |
| COc1ccc(CN2C(=O)COc3ccc(Nc4nc(Nc5cccc(N6CCN(C)CC6)c5)ncc4F)nc32)cc1 | ≥ 10 µM |
| CN1C(=O)COc2ccc(Nc3nc(Nc4ccc(N5CCN(S(C)(=O)=O)CC5)cc4)ncc3Cl)cc21 | ≥ 10 µM |
| CN1CCN(c2cccc(Nc3ncc(F)c(Nc4ccc5c(n4)N(CC4CCC4)C(=O)CO5)n3)c2)CC1 | < 0.5 µM |

API: the following record is the query input.
Query string: Lookup: IC50 / PLK1 (Homo sapiens) / `Cc1ccc(Nc2ncc(F)c(Nc3ccc4c(n3)NCCO4)n2)cc1N1CCN(C)CC1`
Result string: ≥ 10 µM
